The measured values listed here are drawn from PubChem BioAssay.

# maps each entry to its inhibition
# assay-method-text: human hepatoma cell viability loss – ATP luminescence, cytotoxicity control for P. falciparum antimalarial project, primary screen (AID 2303);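 also: 0% = DMSO wells and 100% = digitonin-killed cells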
# assay-conditions: HepG2 viability, 24-48 h, at 10 µM, hits give high values
Number in %, nothing else.

molecule | assay-value
Cc1cccc2[nH]c(-c3cccc(-c4ccc(NC(=O)CCc5cnc[nH]5)cc4)c3)nc12 | 3
Cc1cc(N(C)C)nc(Nc2ccc(NC(=O)Nc3ccccc3)cc2)n1 | 10
Nc1nc(F)nc2nc[nH]c12 | 78
CN(C)C(=O)c1ccc(CN(Cc2ccc(OC(C)(C)C)cc2)Cc2ccc3c(c2)OCCO3)cc1 | -5
Cc1nc2ccccc2n1C1C[C@H]2CC[C@@H](C1)N2CCCC1(c2ccccc2)CCN(C(=O)OCc2ccccc2)CC1 (stereo not given in full) | 46

Query :: Give reported inhibition value for "COc1ccc(NC(=O)Nc2cccc(-c3cccc(-c4nc5c(C)cccc5[nH]4)c3)c2)cc1"
Result :: -1

====

# test-system: Calcium-dependent protein kinase 1 (Plasmodium falciparum (isolate 3D7)) (UniProt P62344)
# Sequence (P62344 whole entry, looked up): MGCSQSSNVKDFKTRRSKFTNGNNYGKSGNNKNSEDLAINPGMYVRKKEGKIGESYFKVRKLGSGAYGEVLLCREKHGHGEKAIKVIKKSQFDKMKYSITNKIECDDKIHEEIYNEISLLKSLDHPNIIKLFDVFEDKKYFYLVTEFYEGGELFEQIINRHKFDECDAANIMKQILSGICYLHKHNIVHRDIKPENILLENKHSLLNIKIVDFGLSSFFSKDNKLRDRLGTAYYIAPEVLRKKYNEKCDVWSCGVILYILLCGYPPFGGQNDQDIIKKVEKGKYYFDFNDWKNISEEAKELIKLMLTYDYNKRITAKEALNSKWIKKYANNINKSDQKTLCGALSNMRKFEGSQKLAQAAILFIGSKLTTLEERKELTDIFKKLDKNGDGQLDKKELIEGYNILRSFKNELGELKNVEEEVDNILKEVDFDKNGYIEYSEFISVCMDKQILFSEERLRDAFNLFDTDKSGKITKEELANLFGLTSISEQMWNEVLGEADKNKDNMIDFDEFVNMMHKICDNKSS
# assay-method-text: PfCDPK1 kinase inhibitors, biochemical, TCAMS library (AID 1159585);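 also: inhibitors leave more ATP so luminescence rises with inhibition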
# assay-conditions: recombinant PfCDPK1, Kinase-Glo ATP depletion luminescence
Results with a measured potency or affinity are listed apart. Active and inactive are the calls of the source. The limit is not given here; nearly all actives have IC50 up to about 0.98 µM.
measured-metric: outcome

compound | test-system | assay-value
COC(=O)c1c(NC(=O)c2cccc(C(F)(F)F)c2)sc2c1CCN(Cc1ccccc1)C2 | Calcium-dependent protein kinase 1 (Plasmodium falciparum (isolate 3D7)) (UniProt P62344) | inactive
Cc1cc(C(F)(F)F)cc(-n2ncc(-c3ccc(C(=O)NCc4ccccc4N)cc3)c2N)n1 | Calcium-dependent protein kinase 1 (Plasmodium falciparum (isolate 3D7)) (UniProt P62344) | inactive
C=CCN(C(=O)c1ccc(Cl)c([N+](=O)[O-])c1)c1nc(-c2ccccc2)cs1 | Calcium-dependent protein kinase 1 (Plasmodium falciparum (isolate 3D7)) (UniProt P62344) | inactive
Cc1c(C(=O)[C@@H]2C[C@H]2CN2CCC(N3CCCC3)CC2)sc2ccccc12 | Calcium-dependent protein kinase 1 (Plasmodium falciparum (isolate 3D7)) (UniProt P62344) | inactive
CCCc1cc(=O)[nH]c(-n2nc(C)cc2NC(=O)C(CC)c2ccccc2)n1 (stereo unspecified) | Calcium-dependent protein kinase 1 (Plasmodium falciparum (isolate 3D7)) (UniProt P62344) | inactive

Would you kindly look at the next entry?
Query :: Give reported outcome value for "N#Cc1cc(C(=O)c2cc(Br)ccc2O)cn(-c2cc(Cl)cc(Cl)c2)c1=O"
Result :: inactive

====

# test-system: L-lactate dehydrogenase (Plasmodium falciparum (isolate CDC / Honduras)) (UniProt Q27743)
# Sequence (Q27743 whole entry, looked up): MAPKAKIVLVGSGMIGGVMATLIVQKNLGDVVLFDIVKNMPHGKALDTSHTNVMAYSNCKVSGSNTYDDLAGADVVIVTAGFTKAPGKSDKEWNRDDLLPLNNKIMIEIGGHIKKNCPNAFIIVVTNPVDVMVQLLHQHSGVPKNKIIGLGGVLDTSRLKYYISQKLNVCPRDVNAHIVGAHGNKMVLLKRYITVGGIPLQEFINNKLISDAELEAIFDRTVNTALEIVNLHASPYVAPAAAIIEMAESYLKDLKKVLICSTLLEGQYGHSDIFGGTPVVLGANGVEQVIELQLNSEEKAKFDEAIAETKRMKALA
# assay-method-text: PfLDH activity inhibition – cell lysate, 3D7 strain, counter-screen for P. falciparum growth inhibition project (AID 2304);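 also: 0% = vehicle and 100% = reference inhibitor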
# assay-conditions: P. falciparum 3D7 crude extract, LDH APAD/NBT absorbance; at 2 µM; hits give high values
measured-metric: inhibition (%)
Number in %, nothing else.

Some solved entries appear below for comparison.
given-smiles | test-system | measured-metric | assay-value
c1cc(CN2CCc3ccccc3CC2)cc(-c2c[nH]c3nc(NC4CCCC4)ncc23)c1 | L-lactate dehydrogenase (Plasmodium falciparum (isolate CDC / Honduras)) (UniProt Q27743) | inhibition | -3
COc1cc2nc(NCCCOC(C)C)n3nc(-c4ccccc4)nc3c2cc1OC | L-lactate dehydrogenase (Plasmodium falciparum (isolate CDC / Honduras)) (UniProt Q27743) | inhibition | -1
CCCCCCCN1CC[C@@H](C[C@H](N)Cc2ccnc3ccc(OC)cc23)[C@@H](CC)C1 | L-lactate dehydrogenase (Plasmodium falciparum (isolate CDC / Honduras)) (UniProt Q27743) | inhibition | -2
CC(=O)c1ccc2nc[nH]c(=O)c2c1 | L-lactate dehydrogenase (Plasmodium falciparum (isolate CDC / Honduras)) (UniProt Q27743) | inhibition | -1

Would you kindly look at the next entry?
Query :: Give reported inhibition value for "CCCCN1CCN(c2cc(NS(=O)(=O)c3ccc(C(=O)Nc4ccc(C(F)(F)F)cc4)cc3)ccc2OC)CC1"
Result :: -3
